target: Human CXCR4 transfected HEK293 cells (Homo sapiens, UniProt P61073); assay: CXCR4 functional calcium assay (calcium flux FLIPR, antagonism of SDF1 response); conditions: CXCR4 functional activity, antagonism of SDF1 (EC50 concentration), read-out: CXCR4 fKi
Sequence (P61073 whole entry): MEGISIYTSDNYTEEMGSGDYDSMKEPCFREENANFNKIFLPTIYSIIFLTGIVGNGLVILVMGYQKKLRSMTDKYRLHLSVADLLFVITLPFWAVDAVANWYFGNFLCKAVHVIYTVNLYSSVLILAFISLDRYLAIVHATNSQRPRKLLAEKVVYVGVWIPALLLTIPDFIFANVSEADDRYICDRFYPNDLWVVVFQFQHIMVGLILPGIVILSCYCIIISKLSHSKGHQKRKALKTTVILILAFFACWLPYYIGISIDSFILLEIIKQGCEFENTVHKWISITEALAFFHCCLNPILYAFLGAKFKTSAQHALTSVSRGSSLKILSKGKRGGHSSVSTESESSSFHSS
Where a name gives a salt, the structure may show the parent alone.
Kindly supply the reported Ki values for the records listed here.

Input line: Give its Ki value. Item: CC(C)N1CCC(N2CCCN(c3cccc(C(=O)NCCN(C)C)n3)CC2)CC1 [Example 16]
Output line: 100 to 500 nM

Input line: // query: c1cc(NCCNCCCNC2CCCC2)nc(-c2ncc(C3CC3)[nH]2)c1 [Example 237]
Output line: 100 to 500 nM

Input line: Item: CCc1[nH]c(-c2cccc(N3CCCN(C4CCN(C(C)C)CC4)CC3)n2)nc1C [Example 119]
Output line: < 20 nM

Input line: Please answer likewise for CC(C)N1CCC(N2CCCN(c3cccc(C(=O)Nc4ccccc4)n3)CC2)CC1 [Example 23]
Output line: < 20 nM

Input line: How about CCc1cn(C)c(-c2cccc(N3CCCN(C4CCN(C(C)C)CC4)CC3)n2)n1 [Example 124] ?
Output line: 20 to 100 nM

Input line: Next compound up: CC(C)N1CCOCC1CCN1CCCN(c2cccc(C(=O)Nc3ccncc3)n2)CC1 (stereo not drawn) [Example 201]
Output line: 100 to 500 nM

Input line: Try this compound too: CC(C)N1CCC(N2CCCN(c3cccc(C(=O)NC4CC4)n3)CC2)CC1 [Example 11]
Output line: 100 to 500 nM

Input line: Quick one: COCCCNC(=O)c1cccc(N2CCCN(C3CCN(C(C)C)CC3)CC2)n1 [Example 15]
Output line: 100 to 500 nM

Input line: How about this compound: [2H]C1([2H])CCN(C2CCN([C@H](C)CC)CC2)CCN1c1cccc(C(=O)Nc2ccncc2)n1 [Example 176]
Output line: < 20 nM

Input line: // same read-out, input: Clc1ccccc1CN1CCC(N2CCCN(c3ccccn3)CC2)CC1 [Example 261]
Output line: 100 to 500 nM

Input line: CCCCNC(=O)c1cccc(N2CCCN(CC3CN(C(C)C)CCO3)CC2)n1 (stereo not drawn) [Example 250] ?
Output line: 20 to 100 nM

Input line: Field entry: Cc1nc(-c2cccc(N3CCN(C4CCCN(C(C)C)CC4)CC3)n2)[nH]c1C1CC1 (stereo not drawn) [Example 243]
Output line: 100 to 500 nM

Input line: And Cc1ccc(N2CCCN(C3CCN(Cc4ccccc4Cl)CC3)CC2)nc1 [Example 263] ?
Output line: 100 to 500 nM

Input line: One more compound: CC(C)N1CCC(N2CCCN(c3cccc(C(=O)NCc4ccco4)n3)CC2)CC1 [Example 40]
Output line: < 20 nM

Input line: // next record COCC(C)N1CCC(N2CCCN(c3cccc(C(=O)NCC4CC4)n3)CC2)CC1 (stereo not drawn) [Example 127]
Output line: 20 to 100 nM

Input line: How about this compound: CC(C)N1CCC(N2CCCN(c3cccc(-c4nc5ccccc5[nH]4)n3)CC2)CC1 [Example 141]
Output line: < 20 nM

Input line: Try the compound CC(C)N1CCC(N2CCCN(c3cccc(-c4nc5ccc(C(F)(F)F)cc5[nH]4)n3)CC2)CC1 [Example 144]
Output line: 100 to 500 nM

Input line: Now try CC(C)N1CCC(N2CC3CCC2CN(c2cccc(C(=O)NCC4CC4)n2)C3)CC1 (stereo not drawn) [Example 199, trihydrochloride] .
Output line: 500 to 1000 nM

Input line: What about this compound? [2H]C1([2H])CCN(c2cccc(C(=O)Nc3ccncc3)n2)CCN1C1CCN([C@H](C)CC)CC1 [Example 188]
Output line: < 20 nM

Input line: Would you mind doing COc1ccc2[nH]c(-c3cccc(N4CCCN(C5CCN(C(C)C)CC5)CC4)n3)cc2c1 [Example 105] as well?
Output line: 500 to 1000 nM

Input line: Can you check CC(C)N1CCC(N2CCN(c3cccc(C(=O)NCC4CC4)n3)CC(O)C2)CC1 (stereo not drawn) [Example 183] next?
Output line: 100 to 500 nM

Input line: Now the compound CC(C)N1CCC(N2CCCN(c3cccc(C(=O)NCc4cncs4)n3)CC2)CC1 [Example 43]
Output line: 20 to 100 nM

Input line: Quick one: Cc1ccc(N2CCCN(C3CCN(C(C)C)CC3)CC2)nc1C(=O)NCC1CC1 [Example 125]
Output line: 100 to 500 nM

Input line: Okay, and [2H]C1([2H])CCN(c2cccc(C(=O)Nc3ccncc3)n2)CCN1C1CCN(Cc2ccc(F)cc2Cl)CC1 [Example 203] ?
Output line: < 20 nM

Input line: Next: Cc1ccc2nc(-c3cccc(N4CCCN(C5CCN(C(C)C)CC5)CC4)n3)[nH]c2c1 [Example 148]
Output line: 20 to 100 nM

Input line: Request: CC(C)(C)c1cnc(-c2cccc(N3CCCN(C4CCN(C(C)(C)C)CC4)CC3)n2)[nH]1 [Example 117]
Output line: 100 to 500 nM

Input line: Item: CC(CF)N1CCC(N2CCCN(c3cccc(C(=O)NCC4CC4)n3)CC2)CC1 (stereo not drawn) [Example 67]
Output line: 500 to 1000 nM

Input line: Same read-out for COCCNC(=O)c1cccc(N2CCCN(C3CCN(Cc4ccccc4Cl)CC3)CC2)n1 [Example 50] ?
Output line: 100 to 500 nM

Input line: Next compound: CCN1CCC(N2CCCN(c3cccc(C(=O)NCC4CC4)n3)CC2)CC1 [Example 60]
Output line: 500 to 1000 nM

Input line: Another compound: CCc1nc(-c2cccc(N3CCCN(C4CCN(C(C)C)CC4)CC3)n2)[nH]c1C1CC1 [Example 122]
Output line: < 20 nM

Input line: Try the compound O=C(Nc1ccncc1)c1cccc(N2CC3CCC(C2)N(C2CCN(Cc4ccc(F)cc4Cl)CC2)C3)n1 (stereo not drawn) [Example 209]
Output line: 100 to 500 nM

Input line: Would you kindly repeat that for NC(=O)c1cccc(N2CCCN(C3CCN(Cc4ccccc4Cl)CC3)CC2)n1 [Example 136] ?
Output line: 100 to 500 nM

Input line: Same question for CC(C)N1CCC(N2CCCN(c3cccc(-c4ncc(C5CC5)[nH]4)n3)CC2)CC1 [Example 111] please.
Output line: < 20 nM

All values here come from patent US10995091B2.
